- Tested on: HCV 3a RLuc cells (NS5A chimeric genotype 1b Con1 replicon with consensus genotype 3a NS5A gene)
- method summary: microbe, parasite or virus in culture
- Type: cell-based
- experimental conditions: Hepatitis C virus, read-out: 3a, Table 1; genotype 3a NS5A chimeric replicon
reported property: EC50

[[record]]
compound = "COC(=O)N[C@H](C(=O)N1CCC[C@H]1c1ncc(-c2ccc3c4ccc(-c5cnc([C@@H]6CCCN6C(=O)[C@@H](NC(=O)OC)C(C)C)[nH]5)cc4c4ccccc4c3c2)[nH]1)C(C)C"
test_result = "0.001 to 0.99 nM"

[[record]]
compound = "COC(=O)N[C@H](C(=O)N1CCC[C@H]1c1ncc(-c2ccc3c4c(ccc3c2)-c2ccc(-c3cnc([C@@H]5CCCN5C(=O)[C@@H](NC(=O)OC)C5CCOCC5)[nH]3)cc2CO4)[nH]1)C(C)C"
test_result = "1 to 4.99 nM"

[[record]]
compound = "COC(=O)N[C@H](C(=O)N1CCC[C@H]1c1ncc(-c2ccc3c(c2)COc2c-3ccc3cc(-c4cnc([C@@H]5CCCN5C(=O)[C@H](NC(=O)OC)c5ccccc5)[nH]4)ccc23)[nH]1)C(C)C"
test_result = "0.001 to 0.99 nM"

[[record]]
compound = "COC(=O)N[C@H](C(=O)N1CCC[C@H]1c1ncc(-c2ccc3c(c2)COc2c-3ccc3cc(-c4cnc([C@@H]5CCCN5C(=O)OCc5ccccc5)[nH]4)ccc23)[nH]1)C1CCOCC1"
test_result = "> 5 nM"

[[record]]
compound = "COC(=O)N[C@H](C(=O)N1CCC[C@H]1c1ncc(-c2ccc3c4ccc(-c5cnc([C@@H]6CCCN6C(=O)[C@@H](NC(=O)OC)C(C)C)[nH]5)cc4c4nc5ccccc5nc4c3c2)[nH]1)C(C)C"
test_result = "> 5 nM"

[[record]]
compound = "COC(=O)N[C@@H](C(=O)N1CCC[C@H]1c1ncc(-c2ccc3c(c2)COc2c-3ccc3cc(-c4cnc([C@@H]5CCCN5C(=O)OCc5ccccc5)[nH]4)ccc23)[nH]1)c1ccccc1"
test_result = "0.001 to 0.99 nM"

[[record]]
compound = "COC(=O)N[C@H](C(=O)N1CCC[C@H]1c1ncc(-c2cc3c4c(c2)OCc2cc(-c5cnc([C@@H]6CCCN6C(=O)[C@H](NC(=O)OC)c6ccccc6)[nH]5)cc(c2-4)OC3)[nH]1)C(C)C [Example 25c]"
test_result = "0.001 to 0.99 nM"

[[record]]
compound = "COC(=O)N[C@H](C(=O)N1CCC[C@H]1c1ncc(-c2ccc3c4ccc(-c5cnc([C@@H]6CCCN6C(=O)[C@@H](NC(=O)OC)C(C)C)[nH]5)cc4c4nccnc4c3c2)[nH]1)C(C)C"
test_result = "1 to 4.99 nM"

[[record]]
compound = "COC(=O)N[C@H](C(=O)N1CCC[C@H]1c1ncc(-c2ccc3c(c2)COc2c-3ccc3cc(-c4cnc([C@@H]5CCCN5C(=O)[C@@H](NC(=O)OC)[C@@H](C)OC)[nH]4)ccc23)[nH]1)[C@@H](C)OC"
test_result = "> 5 nM"

[[record]]
compound = "COC(=O)N[C@H](C(=O)N1CCC[C@H]1c1ncc(-c2cc3c4c(c2)CCc2cc(-c5cnc([C@@H]6CCCN6C(=O)[C@@H](NC(=O)OC)C(C)C)[nH]5)cc(c2-4)CC3)[nH]1)C(C)C"
test_result = "0.001 to 0.99 nM"

[[record]]
compound = "COC(=O)N[C@H](C(=O)N1CCC[C@H]1c1ncc(-c2cc3c4c(c2)CCc2cc(-c5cnc([C@@H]6CCCN6C(=O)[C@@H](NC(=O)OC)C6CCOCC6)[nH]5)cc(c2-4)CC3)[nH]1)C(C)C"
test_result = "0.001 to 0.99 nM"

[[record]]
compound = "COC(=O)N[C@H](C(=O)N1CCC[C@H]1c1ncc(-c2ccc3c(c2)COc2c-3ccc3cc(-c4cnc([C@@H]5CCCN5C(=O)[C@@H](NC(=O)OC)[C@@H](C)OC)[nH]4)ccc23)[nH]1)C1CCOCC1"
test_result = "0.001 to 0.99 nM"

[[record]]
compound = "COC(=O)NC(C(=O)N1CCC[C@@H]1c1ncc(-c2cc3c4c(c2)OCc2cc(-c5cnc([C@@H]6CCCN6C(=O)[C@@H](NC(=O)OC)C(C)C)[nH]5)cc(c2-4)OC3)[nH]1)C(C)C (stereo partly drawn)"
test_result = "0.001 to 0.99 nM"

[[record]]
compound = "COC(=O)N[C@H](C(=O)N1CCC[C@H]1c1ncc(-c2cc3c4c(c2)OCc2cc(-c5cnc([C@@H]6CCCN6C(=O)[C@@H](NC(=O)OC)C6CCOCC6)[nH]5)cc(c2-4)OC3)[nH]1)C(C)C [Example 25b]"
test_result = "0.001 to 0.99 nM"

[[record]]
compound = "COC(=O)N[C@H](C(=O)N1CCC[C@H]1c1ncc(-c2cc3c4c(c2)CCc2cc(-c5cnc([C@@H]6CCCN6C(=O)[C@@H](NC(=O)OC)[C@H](C)OC)[nH]5)cc(c2-4)CC3)[nH]1)C(C)C"
test_result = "0.001 to 0.99 nM"

[[record]]
compound = "COC(=O)N[C@H](C(=O)N1CCC[C@H]1c1ncc(-c2ccc3c4c(ccc3c2)-c2ccc(-c3cnc([C@@H]5CCCN5C(=O)[C@H](NC(=O)OC)c5ccccc5)[nH]3)cc2CO4)[nH]1)[C@@H](C)OC"
test_result = "0.001 to 0.99 nM"

[[record]]
compound = "COC(=O)N[C@H](C(=O)N1CCC[C@H]1c1ncc(-c2ccc3c(c2)COc2c-3ccc3cc(-c4cnc([C@@H]5CCCN5C(=O)[C@H](NC(=O)OC)c5ccccc5)[nH]4)ccc23)[nH]1)C1CCOCC1"
test_result = "0.001 to 0.99 nM"

[[record]]
compound = "COC(=O)N[C@H](C(=O)N1CCC[C@H]1c1ncc(-c2cc3c4c(c2)OCc2cc(-c5cnc([C@@H]6CCCN6C(=O)[C@@H](NC(=O)OC)C(C)C)[nH]5)cc(c2-4)OC3)[nH]1)C(C)C"
test_result = "0.001 to 0.99 nM"

